# experiment summary: Rat P.O. pharmacokinetics and oral bioavailability
# Type: in vivo, rats
# assay setup: P.O. about 37 mg/kg, PEG 300 vehicle
Give measured Cmax for each item. Keep answers brief.
Supply the numeric figure in nM, leaving out any unit text.

// Cc1cccc(C)c1OCC(=O)N[C@@H](Cc1ccccc1)[C@@H](O)C[C@H](CC(C)C)NC(=O)[C@H](C(C)C)N1CCCNC1=O [(16)] : Cmax value = 269

// CC(C)C[C@@H](C[C@H](O)[C@H](Cc1ccccc1)NC(=O)OCc1cncs1)NC(=O)[C@H](C(C)C)N1CCCNC1=O [Compound (19)] : Cmax value = 24800

// Cc1cccc(C)c1OCC(=O)N[C@@H](CC(C)C)C[C@H](O)[C@H](Cc1ccccc1)NC(=O)[C@H](C(C)C)N1CCCNC1=O [(43)] : Cmax value = 2100

// Cc1cccc(C)c1OCC(=O)N[C@@H](Cc1ccccc1)[C@@H](O)C[C@H](CC(C)C)NC(=O)[C@@H](NC(=O)N1CCOCC1)C(C)C [(45)] : Cmax value = 573

* * *

# measured target: HIV-1 protease (Human immunodeficiency virus type 1 group M subtype B)
# experiment summary: HIV protease assay (Ki)
# Type: biochemical
# assay setup: Table 1, in nM; read-out: HIV-1 Ki
reported endpoint: Ki (nM)
Supply the numeric figure in nM, leaving out any unit text.

// `CC(C)C[C@@H](C[C@H](O)[C@H](Cc1ccccc1)NC(=O)[C@H](C)NC(=O)OCc1ccccc1)NC(=O)c1cccc(O)c1` : Ki value = 2

// `Cc1cccc(C)c1OCC(=O)N[C@@H](Cc1ccccc1)[C@@H](O)C[C@H](CC(C)C)NC(=O)[C@@H]1CCNC(=O)N1` : Ki value = 16

// `Cc1ccccc1C(=O)N[C@@H](Cc1ccccc1)[C@@H](O)C[C@H](CC(C)C)NC(=O)OC(C)(C)C` : Ki value = 2.1

// CC(C)(C)OC(=O)N[C@@H](Cc1ccccc1)C[C@H](O)[C@H](Cc1ccccc1)NC(=O)OCc1ccccc1 [(53), reference compound] : Ki value = 1

// `Cc1cccc(C)c1OCC(=O)N[C@@H](Cc1ccccc1)[C@@H](O)C[C@H](CC(C)C)NC(=O)[C@@H](N)C(C)C` : Ki value = 4

// `Cc1cccc(C)c1OCC(=O)N[C@@H](Cc1ccccc1)[C@@H](O)C[C@H](CC(C)C)NC(=O)C1CCN(C(=O)OCc2ccccc2)CC1` : Ki value = 113

// `Cc1cccc(C)c1OCC(=O)N[C@@H](Cc1ccccc1)[C@@H](O)C[C@H](CC(C)C)NC(=O)N1CCOCC1` : Ki value = 37

// `CC(C)C[C@@H](C[C@H](O)[C@H](Cc1ccccc1)NC(=O)CNC(=O)OCc1ccccc1)NC(=O)c1cccc(O)c1` : Ki value = 108

// `Cc1cccc(C)c1OCC(=O)N[C@@H](Cc1ccccc1)[C@@H](O)C[C@H](CC(C)C)NC(=O)CC(C)C` : Ki value = 1.5

// `Cc1cccc(C)c1OCC(=O)N[C@@H](Cc1ccccc1)[C@@H](O)C[C@H](CC(C)C)NC(=O)c1cccc(O)c1` : Ki value = 1.2

* * *

# Test system: HIV-1
# experiment summary: HIV antiviral assay (EC50)
# Format: cell-based
# assay setup: Table 1
reported endpoint: HIV-1 EC50 (μM)

Cc1cccc(C)c1OCC(=O)N[C@@H](Cc1ccccc1)[C@@H](O)C[C@H](CC(C)C)NC(=O)[C@@H]1CCNC(=O)N1 [(29)] = in-active
CC(C)CC(CC(O)C(Cc1ccccc1)NC(=O)C(C(C)C)N1CCCNC1=O)NC(=O)OC(C)(C)C (stereo not shown) [(44)] = in-active

* * *

# experiment summary: Rat IV pharmacokinetics
# Assay type: in vivo, rats
# assay setup: IV about 5 mg/kg
Give measured Rat IV CL for each item. Keep answers brief.
Supply the numeric figure in mL/min/kg, leaving out any unit text.

// `Cc1cccc(C)c1OCC(=O)N[C@@H](Cc1ccccc1)[C@@H](O)C[C@H](CC(C)C)NC(=O)[C@H](C(C)C)N1CCCNC1=O` : Rat IV CL value = 9.8

// `Cc1cccc(C)c1OCC(=O)N[C@@H](CC(C)C)C[C@H](O)[C@H](Cc1ccccc1)NC(=O)[C@H](C(C)C)N1CCCNC1=O` : Rat IV CL value = 36.6

// `Cc1cccc(C)c1OCC(=O)N[C@@H](Cc1ccccc1)[C@@H](O)C[C@H](CC(C)C)NC(=O)[C@@H](NC(=O)N1CCOCC1)C(C)C` : Rat IV CL value = 67.5

// `CC(C)C[C@@H](C[C@H](O)[C@H](Cc1ccccc1)NC(=O)OCc1cncs1)NC(=O)[C@H](C(C)C)N1CCCNC1=O` : Rat IV CL value = 25

* * *

# measured target: plasmepsin II (Plasmodium falciparum, UniProt P46925)
# Sequence (P46925 125-453): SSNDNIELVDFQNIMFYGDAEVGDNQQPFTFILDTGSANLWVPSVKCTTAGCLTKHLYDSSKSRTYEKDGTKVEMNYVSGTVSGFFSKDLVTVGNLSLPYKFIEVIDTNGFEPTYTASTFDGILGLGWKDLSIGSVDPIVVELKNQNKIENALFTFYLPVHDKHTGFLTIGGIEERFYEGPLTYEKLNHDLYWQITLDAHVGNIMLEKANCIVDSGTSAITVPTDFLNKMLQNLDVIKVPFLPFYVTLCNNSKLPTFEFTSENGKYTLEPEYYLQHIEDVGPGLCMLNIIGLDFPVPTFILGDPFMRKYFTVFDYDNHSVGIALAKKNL
Entries whose Ki is below 60 nM take true (1); entries at or above 60 nM take false (0).

Qu. Field: below-cutoff. Rule: recorded Ki strictly less than 60 nM. Subject: `Cc1cccc(C)c1OCC(=O)N[C@@H](Cc1ccccc1)[C@@H](O)C[C@H](CC(C)C)NC(=O)OC(C)(C)C`
Ans. false (0)

Qu. Field: below-cutoff. Rule: recorded Ki strictly less than 60 nM. Subject: `Cc1cccc(C)c1OCC(=O)N[C@@H](Cc1ccccc1)[C@@H](O)C[C@H](CC(C)C)NC(=O)N1CCOCC1`
Ans. false (0)

Qu. Field: below-cutoff. Rule: recorded Ki strictly less than 60 nM. Subject: `Cc1cccc(C)c1OCC(=O)N[C@@H](Cc1ccccc1)[C@@H](O)C[C@H](CC(C)C)NC(=O)[C@@H]1CCNC(=O)N1`
Ans. false (0)

Qu. Field: below-cutoff. Rule: recorded Ki strictly less than 60 nM. Subject: `Cc1cccc(C)c1OCC(=O)N[C@@H](Cc1ccccc1)[C@@H](O)C[C@H](CC(C)C)NC(=O)[C@H](C(C)C)N1CCCNC1=O`
Ans. false (0)

Qu. Field: below-cutoff. Rule: recorded Ki strictly less than 60 nM. Subject: `CC(C)C[C@@H](C[C@H](O)[C@H](Cc1ccccc1)NC(=O)[C@@H](NC(=O)OCc1ccccc1)C(C)C)NC(=O)c1cccc(O)c1`
Ans. true (1)

Qu. Field: below-cutoff. Rule: recorded Ki strictly less than 60 nM. Subject: `Cc1cccc(C)c1OCC(=O)N[C@@H](Cc1ccccc1)[C@@H](O)C[C@H](CC(C)C)NC(=O)NC(C)(C)C`
Ans. false (0)

Qu. Field: below-cutoff. Rule: recorded Ki strictly less than 60 nM. Subject: Cc1cccc(C)c1OCC(=O)N[C@@H](Cc1ccccc1)[C@@H](O)C[C@H](Cc1ccccc1)NC(=O)[C@H](C(C)C)N1CCCNC1=O [(24), reference compound]
Ans. false (0)

Qu. Field: below-cutoff. Rule: recorded Ki strictly less than 60 nM. Subject: `Cc1cccc(C)c1OCC(=O)N[C@@H](Cc1ccccc1)[C@@H](O)C[C@H](CC(C)C)NC(=O)[C@@H](NC(=O)OCc1ccccn1)C(C)C`
Ans. false (0)

Qu. Field: below-cutoff. Rule: recorded Ki strictly less than 60 nM. Subject: `Cc1cccc(C)c1OCC(=O)N[C@@H](Cc1ccccc1)[C@@H](O)C[C@H](CC(C)C)NC(=O)c1cccc(N)c1`
Ans. true (1)

Qu. Field: below-cutoff. Rule: recorded Ki strictly less than 60 nM. Subject: `Cc1cccc(C)c1OCC(=O)N[C@@H](Cc1ccccc1)[C@@H](O)C[C@H](CC(C)C)NC(=O)c1ccc(N)cc1`
Ans. true (1)

Qu. Field: below-cutoff. Rule: recorded Ki strictly less than 60 nM. Subject: `CC(C)C[C@@H](C[C@H](O)[C@H](Cc1ccccc1)NC(=O)[C@H](Cc1ccccc1)NC(=O)OCc1ccccc1)NC(=O)c1cccc(O)c1`
Ans. true (1)

Qu. Field: below-cutoff. Rule: recorded Ki strictly less than 60 nM. Subject: `Cc1cccc(C)c1OCC(=O)N[C@@H](Cc1ccccc1)[C@@H](O)C[C@H](CC(C)C)NC(=O)O[C@H]1CCOC1`
Ans. true (1)

Qu. Field: below-cutoff. Rule: recorded Ki strictly less than 60 nM. Subject: `CC[C@H](C)[C@H](NC(=O)OCc1ccccc1)C(=O)N[C@@H](Cc1ccccc1)[C@@H](O)C[C@H](CC(C)C)NC(=O)c1cccc(O)c1`
Ans. true (1)

* * *

# measured target: HIV-1 protease (Human immunodeficiency virus type 1 group M subtype B)
# experiment summary: HIV protease assay (Ki)
# Assay type: biochemical
reported endpoint: inhibitory activity against HIV-1 protease, in words

Cc1cccc(C)c1OCC(=O)N[C@@H](Cc1ccccc1)[C@@H](O)C[C@H](CC(C)C)NC(=O)c1ccc(N)cc1 [(31)] = generally potent
Cc1cccc(C)c1OCC(=O)N[C@@H](Cc1ccccc1)[C@@H](O)C[C@H](CC(C)C)NC(=O)c1cccc(N)c1 [(32)] = generally potent
Cc1cccc(C)c1OCC(=O)N[C@@H](Cc1ccccc1)[C@@H](O)C[C@H](CC(C)C)NC(=O)NC(C)(C)C [(28)] = generally potent
